target.or.system: Tyrosine-protein kinase SYK (Homo sapiens)
observation.type: IC50

Challenge: // IC50 lookup, key: CC1CN(c2ccncc2NC(=O)c2ccnn3cc(-c4ccccc4)nc23)CCO1 (racemic)
Response given: > 2000 nM

* * *

experiment.notes: Clearance in 8 hr fasted C57BL6 mouse at 2 mg/kg, iv
Format: ADME, organism-based
condition.details: in vivo
observation.type: clearance (mL/min/kg)
One number for each entry, in mL/min/kg.

Below: 2 compounds and their reported clearance.
In [3]: df
Out[3]:
                                   compound  measured_number
0  CC1CN(c2ccncc2NC(=O)c2ccnn3cc(-c4ccccc4)nc23)CCO1 (racemic)              3.8
1  O=C(Nc1cnccc1N1CCOCC1)c1ccnn2cc(-c3ccccc3)nc12             10.6

Then there is this compound:
Challenge: // clearance lookup, key: CC1CN(c2ccncc2NC(=O)c2ccnn3cc(C4CC4)nc23)CCO1 (stereo not drawn)
Response given: 49.5
